test: Biodistribution studies in NMRI mice; format: in vivo; settings: i.v., 60 min p.i.
recorded metric: SUV, brain

Prompt: Please look up its SUV, brain: [11CH3]Oc1ccc(S(N)(=O)=O)cc1 [[^11C]-(6), 4-[^11C]methoxybenzene sulfonamide]
Completion: 1.1

a. NS(=O)(=O)c1ccc(OCC[18F])cc1 [[^18F]-(5)]
b. [11CH3]Oc1ccc(C(=O)NCCc2ccc(S(N)(=O)=O)cc2)cc1 [[^11C]-(4)]
c. NS(=O)(=O)c1ccc(CCNC(=O)c2ccc(OCC[18F])cc2)cc1 [[^18F]-(3)]
Prompt: Reorder the items by SUV, brain, least to greatest. Please list the labels according to the requested order.
Completion: c, b, a

* * *

assay: Biodistribution studies in NMRI mice; type: in vivo; conditions: i.v., 2 min p.i.
recorded metric: Percentage of ID, brain (% ID)

A selection of reference data follows.
Prompt: Please look up its Percentage of ID, brain: NS(=O)(=O)c1ccc(OCC[18F])cc1 [[^18F]-(5)]
Completion: 0.3

Prompt: Please look up its Percentage of ID, brain: [11CH3]Oc1ccc(C(=O)NCCc2ccc(S(N)(=O)=O)cc2)cc1 [[^11C]-(4)]
Completion: 0.2

1. NS(=O)(=O)c1ccc(CCNC(=O)c2ccc(OCC[18F])cc2)cc1 [[^18F]-(3)]
2. [11CH3]Oc1ccc(S(N)(=O)=O)cc1 [[^11C]-(6), 4-[^11C]methoxybenzene sulfonamide]
Prompt: Between the entries labeled 1 and 2 , whose measured Percentage of ID, brain is lower? Your answer should be the label of the entry you select.
Completion: 1

* * *

assay: Biodistribution studies in NMRI mice; type: in vivo; details: i.v., 2 min p.i.
recorded metric: SUV, spleen

1. NS(=O)(=O)c1ccc(OCC[18F])cc1 [[^18F]-(5)]
2. [11CH3]Oc1ccc(C(=O)NCCc2ccc(S(N)(=O)=O)cc2)cc1 [[^11C]-(4)]
Prompt: Between the entries labeled 1 and 2 , whose measured SUV, spleen is lower? Your answer should be the label of the entry you select.
Completion: 2

* * *

test: Biodistribution studies in NMRI mice; format: in vivo; conditions: i.v., 2 min p.i.
recorded metric: Percentage of ID, urine (% ID)

Prompt: Please look up its Percentage of ID, urine: NS(=O)(=O)c1ccc(OCC[18F])cc1 [[^18F]-(5)]
Completion: 0.3

Prompt: Please look up its Percentage of ID, urine: [11CH3]Oc1ccc(S(N)(=O)=O)cc1 [[^11C]-(6), 4-[^11C]methoxybenzene sulfonamide]
Completion: 0.3

a. [11CH3]Oc1ccc(C(=O)NCCc2ccc(S(N)(=O)=O)cc2)cc1 [[^11C]-(4)]
b. NS(=O)(=O)c1ccc(CCNC(=O)c2ccc(OCC[18F])cc2)cc1 [[^18F]-(3)]
Prompt: Between the entries labeled a and b , whose measured Percentage of ID, urine is lower? Your answer should be the label of the entry you select.
Completion: b
(b: 0.2 % ID, a: 0.4 % ID)

* * *

experiment: Biodistribution studies in NMRI mice; format: in vivo; settings: i.v., 60 min p.i.
recorded metric: SUV, heart

Prompt: Please look up its SUV, heart: [11CH3]Oc1ccc(C(=O)NCCc2ccc(S(N)(=O)=O)cc2)cc1 [[^11C]-(4)]
Completion: 1.0

A. [11CH3]Oc1ccc(S(N)(=O)=O)cc1 [[^11C]-(6), 4-[^11C]methoxybenzene sulfonamide]
B. NS(=O)(=O)c1ccc(OCC[18F])cc1 [[^18F]-(5)]
C. NS(=O)(=O)c1ccc(CCNC(=O)c2ccc(OCC[18F])cc2)cc1 [[^18F]-(3)]
Prompt: Reorder the items by SUV, heart, least to greatest. Please list the labels according to the requested order.
Completion: C, A, B
